- system: Serine/threonine-protein kinase TAO1 (Homo sapiens)
- condition_info: at 1 µM
readout_type: residual activity (%)
Write down the numeric answer in % and omit the unit.

Need residual activity of CCn1cnc2c(Nc3cccc(Cl)c3)nc(N[C@@H]3CCCC[C@@H]3N)nc21 , thanks.
68

Would you kindly share the measured residual activity for O=[N+]([O-])/C=C/c1ccc2c(c1)OCO2 ?
101

Entry under review: N/C(=N\[N+](=O)[O-])N/N=C\c1ccc(-c2cccc([N+](=O)[O-])c2)o1 . Reported residual activity?
91

Need residual activity, item O=C1NC(=O)c2c1c1c3ccccc3n3c1c1c2c2ccccc2n1C1CCC3O1
75

# input compound: COc1cc2ncnc(Nc3ccc(OCc4ccccc4)cc3)c2cc1OC ; wanted: its residual activity
108

// query residual activity value for entry CC(C)[C@H](CO)Nc1nc(Nc2cccc(Cl)c2)c2ncn(C(C)C)c2n1
82

Param item = COc1ccc2c(c1)/C(=C/c1cnc[nH]1)C(=O)N2 ; retrieve measured residual activity.
41

Please give the measured residual activity for this compound: C[S+]([O-])c1ccc(-c2nc(-c3ccc(F)cc3)c(-c3ccncc3)[nH]2)cc1 (stereo not given)
100

Quick one: residual activity of COc1cc(OC)c(/C=C2\C(=O)Nc3ccccc32)c(OC)c1 ?
95

residual activity lookup needed for O=c1[nH]c2ccccc2n1C1CCN(Cc2ccc(-c3nc4cc5[nH]cnc5cc4nc3-c3ccccc3)cc2)CC1 , thanks.
102
